system: NCI-H292 lung cancer cells; assay: FDA drug screening, complete media vs cholesterol-free media with simvastatin (TABLE 2); format: cell-based, human; details: NCI-H292 cells, drug in complete media
Structures can show the parent of a compound that is named as a salt.

{"compound": "COc1cc2nccc(Oc3ccc(NC(=O)NC4CC4)c(Cl)c3)c2cc1C(N)=O", "tested-target": "NCI-H292 lung cancer cells", "Complete Media": 1.01}
{"compound": "CO[C@@]1(NC(=O)C2SC(=C(C(N)=O)C(=O)O)S2)C(=O)N2C(C(=O)O)=C(CSc3nnnn3C)CS[C@@H]21 (stereo partly shown)", "tested-target": "NCI-H292 lung cancer cells", "Complete Media": 1.027}
{"compound": "CNC[C@H](O)[C@@H](O)[C@H](O)[C@H](O)CO.Nc1nc(-n2cc(C(=O)O)c(=O)c3cc(F)c(N4CC(O)C4)c(Cl)c32)c(F)cc1F", "tested-target": "NCI-H292 lung cancer cells", "Complete Media": 0.9953}
{"compound": "Nc1nc2ncc(CNc3ccc(C(=O)N[C@@H](CCC(=O)O)C(=O)O)cc3)nc2c(=O)[nH]1", "tested-target": "NCI-H292 lung cancer cells", "Complete Media": 0.9443}
{"compound": "C=CCN1C[C@H](C(=O)N(CCCN(C)C)C(=O)NCC)C[C@@H]2c3cccc4[nH]cc(c34)C[C@H]21", "tested-target": "NCI-H292 lung cancer cells", "Complete Media": 0.8998}
{"compound": "O=C(Nc1cnn2ccc(N3CCC[C@@H]3c3cc(F)ccc3F)nc12)N1CC[C@H](O)C1 [Larotrectinib sulfate]", "tested-target": "NCI-H292 lung cancer cells", "Complete Media": 1.699}
{"compound": "C=C1CCC2CC1C2(C)C (stereo not shown)", "tested-target": "NCI-H292 lung cancer cells", "Complete Media": 1.464}
{"compound": "CCc1nc(N)nc(N)c1-c1ccc(Cl)cc1", "tested-target": "NCI-H292 lung cancer cells", "Complete Media": 1.02}
{"compound": "CC(C)=CCC/C(C)=C/CC/C(C)=C/CC/C=C(\\C)CC/C=C(\\C)CCC=C(C)C", "tested-target": "NCI-H292 lung cancer cells", "Complete Media": 0.7931}
{"compound": "CC1CC(OC(=O)C(O)c2ccccc2)CC(C)(C)C1 (stereo not shown) [Cyclandelate]", "tested-target": "NCI-H292 lung cancer cells", "Complete Media": 0.9668}
